target: lipase (Homo sapiens, UniProt P16233); experiment: Inhibition of lipase with pNPP as substrate; assay type: biochemical
measured-attribute: pIC50
# reply with the number alone; pIC50 is -log10 of concentration in mol/L

Reported lipase (Homo sapiens, UniProt P16233) pIC50 for item CCC1CN2CCc3c([nH]c4cccc(OC)c34)C2CC1/C(=C\OC)C(=O)OC (stereo not shown) was 4.56

----------
Target: lipase (Homo sapiens)
Sequence (P16233 17-465): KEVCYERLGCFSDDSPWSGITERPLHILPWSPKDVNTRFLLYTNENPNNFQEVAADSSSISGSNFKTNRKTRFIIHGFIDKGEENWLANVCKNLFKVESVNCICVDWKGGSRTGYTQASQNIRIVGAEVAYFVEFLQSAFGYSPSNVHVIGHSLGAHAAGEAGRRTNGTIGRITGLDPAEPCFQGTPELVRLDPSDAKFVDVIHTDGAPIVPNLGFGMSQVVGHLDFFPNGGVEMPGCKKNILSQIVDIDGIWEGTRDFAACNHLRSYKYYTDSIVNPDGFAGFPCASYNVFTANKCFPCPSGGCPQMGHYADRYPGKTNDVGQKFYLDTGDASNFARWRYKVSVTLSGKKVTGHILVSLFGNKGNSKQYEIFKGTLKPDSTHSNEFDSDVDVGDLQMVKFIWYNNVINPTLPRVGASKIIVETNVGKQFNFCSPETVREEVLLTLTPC
Test: Inhibition of lipase with pNPP as substrate
Assay type: biochemical
Conditions: pure compounds and positive control; pNPP at Km 1.3 mM; unit given; read-out: Half-maximal inhibitory concentration (IC50) Lipase
measured-attribute: IC50

Memo: C[C@@H]1O[C@@H](OC[C@H]2O[C@@H](Oc3c(-c4ccc(O)c(O)c4)oc4cc(O)cc(O)c4c3=O)[C@H](O)[C@@H](O)[C@@H]2O)[C@H](O)[C@H](O)[C@H]1O [Rutin, rutin] , reported IC50: > 100 µM
